- test: Cytotoxicity Determination
- Type: cell-based
- measurement context: human, HEp-2 cells, without addition of virus, CCK-8 readout, bins (Table 4: greater than 100 μM; Table 5: equal to or less than 100 μM and greater than 10 μM), read-out: 50% cytotoxicity concentration (CC50)

smiles input | CC50 at 5 days
COc1ccc(C(=O)NCC(=O)c2cc(C(C)C)cc(-c3csc4c(F)cccc34)n2)cc1OC | > 100 µM
COc1cc(C(=O)NCC(=O)c2ccc(OC)c(-c3ccc(S(C)(=O)=O)cc3)n2)ccc1OCCO | > 100 µM
CCOc1ccc(C(=O)NCC(=O)Nc2nc3cc(F)ccc3n2CCOC)cc1OC | > 100 µM
COc1cc(C(=O)NCC(=O)c2ccc(OC)c(-c3ccc(F)c(Cl)c3)n2)ccc1OC1COC1 | > 100 µM
COc1cc(C(=O)NCC(=O)c2ccc(OC)c(-c3ccc(C)cc3)n2)ccc1OCCO | > 100 µM
COc1cc(C(=O)NCC(=O)c2cccc(-c3csc4c(F)cccc34)n2)ccc1OCc1nc[nH]n1 | 10 to 100 µM
COc1cc(C(=O)NCC(=O)c2cc(C)cc(-c3csc4c(F)cccc34)n2)ccc1OCCO | > 100 µM
COc1ccc(C(=O)NCC(=O)c2nc(-c3csc4c(F)cccc34)cn2C)cc1OC | > 100 µM
COc1ccc(C(=O)NCC(=O)c2ccc(OC)c(-c3c[nH]nc3C)n2)cc1OC | > 100 µM
COc1ccc(C(=O)NCC(=O)c2nc(-c3csc4c(F)cccc34)cc(C(C)C)c2OC)cc1OC | > 100 µM
COc1cc(C(=O)N[C@H](CCO)C(=O)c2ccc(OC)c(-c3ccc(F)c(C(F)(F)F)c3)n2)ccc1OCCO | > 100 µM
COc1cc(C(=O)NCC(=O)N(C)/N=C(\C)c2csc3c(F)cccc23)ccc1OCCO | > 100 µM
COc1cc(Br)c(C(=O)NCC(=O)N/N=C(\C)c2csc3ccccc23)cc1OC | 10 to 100 µM
COc1ccc(C(=O)NCC(=O)N/N=C(\CCO)c2csc3ccccc23)cc1OC | > 100 µM
COc1ccc(C(=O)NCC(=O)N/N=C/c2cc3ccccc3o2)cc1OC | 10 to 100 µM
COc1cc(C(=O)NCC(=O)c2c[nH]c(-c3csc4c(F)cccc34)n2)ccc1OCCO | > 100 µM
COc1cc(C(=O)NCC(=O)c2cccc(-c3csc4c(F)cccc34)n2)ccc1OCCCCO | 10 to 100 µM
COc1ccc(C(=O)NCC(=O)N/N=C(\C)c2cc3c(F)cccc3s2)cc1OC | > 100 µM
COc1ccc(C(=O)NCC(=O)c2ccc(OC)c(-c3cccc(F)c3)n2)cc1OC | > 100 µM
COc1ccc(C(=O)NCC(=O)c2ccc(OC)c(-c3ccccc3F)n2)cc1OC | > 100 µM
COc1cc(C(=O)NCC(=O)c2ccc(OC)c(-c3cnn4ccccc34)n2)ccc1OCCO | > 100 µM
CCN(CC)c1ccc(C(=O)NCC(=O)N/N=C/c2csc3ccccc23)cc1 | > 100 µM
CCN1C/C(=N\NC(=O)CNC(=O)c2ccc(OC)c(OC)c2)c2c(sc3c(F)cccc23)C1 | > 100 µM
COc1cc(C(=O)NCC(=O)c2cc(CO)cc(-c3csc4c(F)cccc34)n2)ccc1OCCO | 10 to 100 µM
Cc1ccc(/C=N/NC(=O)CNC(=O)c2ccccc2)o1 | 10 to 100 µM
COc1ccc(C(=O)NCC(=O)N/N=C(\CCCC(C)C)c2csc3ccccc23)cc1OC | 10 to 100 µM
COc1ccc(C(=O)NCC(=O)N/N=C/c2cncc3ccccc23)cc1OC | 10 to 100 µM
COc1ccc(C(=O)NCC(=O)N/N=C(\CCc2ccccc2)c2csc3ccccc23)cc1OC | 10 to 100 µM
COc1ccc(C(=O)NCC(=O)N/N=C(\C)c2cnc3ccccc3c2)cc1OC | > 100 µM
CCOc1ccc(C(=O)NCC(=O)N/N=C(\C)c2csc3c(F)cccc23)cc1OC | 10 to 100 µM
COc1cc(C(=O)NCC(=O)c2ccc(OCC3CC3)c(-c3csc4c(F)cccc34)n2)ccc1OCCO | > 100 µM
COc1cc(C(=O)NCC(=O)c2ccc(OC)c(-c3ccc(F)c(Cl)c3)n2)ccc1OCC(N)=O | > 100 µM
